All figures here come from paper PMC4274664.

subjectOfTest: rAtACBP4 (Arabidopsis thaliana)
Sequence (Q9MA55 whole entry): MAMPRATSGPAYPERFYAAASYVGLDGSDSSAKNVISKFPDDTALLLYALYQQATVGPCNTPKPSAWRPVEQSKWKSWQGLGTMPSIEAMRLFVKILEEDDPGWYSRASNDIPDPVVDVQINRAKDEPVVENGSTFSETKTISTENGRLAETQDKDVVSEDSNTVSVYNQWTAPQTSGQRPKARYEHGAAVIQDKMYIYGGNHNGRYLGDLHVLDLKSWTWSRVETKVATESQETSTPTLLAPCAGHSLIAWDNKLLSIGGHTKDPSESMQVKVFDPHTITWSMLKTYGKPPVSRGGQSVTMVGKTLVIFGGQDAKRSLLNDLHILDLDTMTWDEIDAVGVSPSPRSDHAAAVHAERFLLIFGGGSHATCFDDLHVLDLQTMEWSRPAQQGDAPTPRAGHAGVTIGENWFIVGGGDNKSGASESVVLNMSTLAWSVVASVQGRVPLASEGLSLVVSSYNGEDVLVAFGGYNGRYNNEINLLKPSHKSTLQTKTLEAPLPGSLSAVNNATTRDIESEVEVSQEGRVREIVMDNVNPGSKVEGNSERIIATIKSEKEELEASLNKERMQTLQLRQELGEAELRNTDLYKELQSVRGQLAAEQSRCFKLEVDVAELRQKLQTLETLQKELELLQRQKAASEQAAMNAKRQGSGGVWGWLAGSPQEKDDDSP
method: ITC of acyl-CoA esters binding to rAtACBP4
cond: ITC, 30°C, 10 mM sodium phosphate buffer pH 7.0; mean of three experiments±S.D.; stoichiometry of ligand-to-protein binding
valueKind: n
Output spec: single numeric token, no unit.

// known answers, use as guide
CCCCCCCCCCCCCC(=O)SCCNC(=O)CCNC(=O)[C@H](O)C(C)(C)COP(=O)(O)OP(=O)(O)OC[C@H]1O[C@@H](n2cnc3c(N)ncnc32)[C@H](O)[C@@H]1OP(=O)(O)O: 1
CCCCCCCCCCCCCCCCCC(=O)SCCNC(=O)CCNC(=O)[C@H](O)C(C)(C)COP(=O)(O)OP(=O)(O)OC[C@H]1O[C@@H](n2cnc3c(N)ncnc32)[C@H](O)[C@@H]1OP(=O)(O)O: 1.1

Prompt: Give n for CC/C=C\C/C=C\C/C=C\CCCCCCCC(=O)SCCNC(=O)CCNC(=O)[C@H](O)C(C)(C)COP(=O)(O)OP(=O)(O)OC[C@H]1O[C@@H](n2cnc3c(N)ncnc32)[C@H](O)[C@@H]1OP(=O)(O)O
Completion: 1

Prompt: Give n for CCCCCCCC/C=C\CCCCCCCC(=O)SCCNC(=O)CCNC(=O)[C@H](O)C(C)(C)COP(=O)(O)OP(=O)(O)OC[C@H]1O[C@@H](n2cnc3c(N)ncnc32)[C@H](O)[C@@H]1OP(=O)(O)O
Completion: 2.1
